From: patent US20260242419A1

As shown below, each of these binders has a reported MRC5 IC50 value.
biological target: Recombinant human IL-1β (BioLegend 579404) (human, UniProt P01584 117-269); experiment: cell-based or functional assay
Starred links: 1 amine or outer side, 2 acyl side, 3 side chain; linkers in the order of their positions; H or OH if unused. Non-standard residues stand in square brackets, D forms with d. No end group written: not given here. Phe(4-(5-CO2H-2-pyrimidyl)) = N[C@@H](Cc1ccc(-c2ncc(C(=O)O)cn2)cc1)C(=O)O; dPro(4R-(4-pyridylmethyl)) = O=C(O)[C@H]1C[C@@H](Cc2ccncc2)CN1; Ala(piperidin-4-yl) = O=C([C@H](CC1CCN([*:3])CC1)N[*:1])[*:2]; Trp(βS-Me,4-F) = C[C@@H](c1c[nH]c2cccc(F)c12)[C@H](N)C(=O)O; Bip(4'-COOH) = N[C@@H](Cc1ccc(-c2ccc(C(=O)O)cc2)cc1)C(=O)O; Ala(1-bicyclo(1.1.1)pentyl) = N[C@@H](CC12CC(C1)C2)C(=O)O; Ala(pyrimidin-5-yl) = N[C@@H](Cc1cncnc1)C(=O)O; Phe(4-COOH) = N[C@@H](Cc1ccc(C(=O)O)cc1)C(=O)O; Pro(cis-4-F) = O=C(O)[C@@H]1C[C@H](F)CN1; Ala(4-THP) = N[C@@H](CC1CCOCC1)C(=O)O; cisHyp = O=C(O)[C@@H]1C[C@H](O)CN1; d(αMeD) = C[C@@](N)(CC(=O)O)C(=O)O; 4Pal = N[C@@H](Cc1ccncc1)C(=O)O; αMeD = C[C@](N)(CC(=O)O)C(=O)O; Dab = NCC[C@H](N)C(=O)O; Aib = CC(C)(N)C(=O)O
State the value, then name its unit.

# binder, MRC5 IC50
measured = [
    ("cyclo([Bip(4'-COOH)][Ala(1-bicyclo(1.1.1)pentyl)][Phe(4-COOH)]G[Pro(cis-4-F)][Trp(βS-Me,4-F)][Aib]EW[Aib][Ala(piperidin-4-yl)]QSG[dPro(4R-(4-pyridylmethyl))]) (ring closure inferred; not fully specified (bridges); printed as Bip4CO2H-AlaPent-Phe4COOH-G-Proc4F-SbMeW4F-Aib-E-W-Aib-AlaPip4-Q-S-G-dProc4CH24Pal, cyclic (macrolactam)) [SEQ ID NO: 176]", "0.036 nM"),
]

For the binder cyclo([Bip(4'-COOH)][4Pal][Phe(4-COOH)]G[cisHyp][Trp(βS-Me,4-F)][Aib]SW[d(αMeD)][Ala(pyrimidin-5-yl)]QSG[dPro(4R-(4-pyridylmethyl))]) (ring closure inferred) [SEQ ID NO: 161] , give its measured MRC5 IC50 value. 0.019 nM

For the binder [Phe(4-(5-CO2H-2-pyrimidyl))][4Pal][Phe(4-COOH)]G[Pro(cis-4-F)][Trp(βS-Me,4-F)][Aib]SW[αMeD][Ala(pyrimidin-5-yl)]Q[Dab]G[dPro(4R-(4-pyridylmethyl))] (lactam (positions not given here); also: macrolactam ring, closure sites not given here) [SEQ ID NO: 187] , give its measured MRC5 IC50 value. 0.015 nM

For the binder cyclo([Bip(4'-COOH)][4Pal][Phe(4-COOH)]G[cisHyp][Trp(βS-Me,4-F)][Aib]SW[Aib][Ala(4-THP)]Q[Dab]G[dPro(4R-(4-pyridylmethyl))]) (ring closure inferred; not fully specified (bridges); printed as Bip4CO2H-4Pal-Phe4COOH-G-Proc4OH-SbMeW4F-Aib-S-W-Aib-AlaTHP4-Q-Dab-G-dProc4CH24Pal, cyclic (macrolactam)) [SEQ ID NO: 212] , give its measured MRC5 IC50 value. 0.029 nM
